Target: Androgen Receptor (Homo sapiens, UniProt P10275+P40337, T878A)
Construct: Compounds have been evaluated in this assay in LNCaP and/or VCaP cells utilizing similar protocols; endogenous in cells; host or cells: LNCaP cells
Sequence (P10275 whole entry T878A): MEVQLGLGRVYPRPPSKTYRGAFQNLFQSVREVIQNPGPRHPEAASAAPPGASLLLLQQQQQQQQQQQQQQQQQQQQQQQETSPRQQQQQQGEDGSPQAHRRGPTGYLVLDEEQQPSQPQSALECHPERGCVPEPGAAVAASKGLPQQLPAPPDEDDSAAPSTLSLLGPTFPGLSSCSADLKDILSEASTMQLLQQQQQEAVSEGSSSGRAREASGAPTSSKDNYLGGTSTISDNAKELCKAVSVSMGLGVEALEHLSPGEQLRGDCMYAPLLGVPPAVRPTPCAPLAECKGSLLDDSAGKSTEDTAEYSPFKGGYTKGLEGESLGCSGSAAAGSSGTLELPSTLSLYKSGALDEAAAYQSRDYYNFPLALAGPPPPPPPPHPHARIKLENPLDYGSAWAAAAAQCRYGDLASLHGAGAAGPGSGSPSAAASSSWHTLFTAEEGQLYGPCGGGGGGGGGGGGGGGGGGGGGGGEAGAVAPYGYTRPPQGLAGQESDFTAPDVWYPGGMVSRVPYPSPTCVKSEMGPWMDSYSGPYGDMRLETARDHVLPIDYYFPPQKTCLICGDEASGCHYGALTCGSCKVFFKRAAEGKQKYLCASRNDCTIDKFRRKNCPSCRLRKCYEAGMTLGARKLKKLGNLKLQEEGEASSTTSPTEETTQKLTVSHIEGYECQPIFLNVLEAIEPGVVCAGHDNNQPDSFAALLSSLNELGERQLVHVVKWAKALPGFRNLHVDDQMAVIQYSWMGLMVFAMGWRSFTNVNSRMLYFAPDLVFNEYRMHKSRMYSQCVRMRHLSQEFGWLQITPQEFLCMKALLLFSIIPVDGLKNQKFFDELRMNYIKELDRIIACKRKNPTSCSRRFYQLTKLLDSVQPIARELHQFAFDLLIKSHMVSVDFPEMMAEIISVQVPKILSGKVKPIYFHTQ
Sequence (P40337 whole entry): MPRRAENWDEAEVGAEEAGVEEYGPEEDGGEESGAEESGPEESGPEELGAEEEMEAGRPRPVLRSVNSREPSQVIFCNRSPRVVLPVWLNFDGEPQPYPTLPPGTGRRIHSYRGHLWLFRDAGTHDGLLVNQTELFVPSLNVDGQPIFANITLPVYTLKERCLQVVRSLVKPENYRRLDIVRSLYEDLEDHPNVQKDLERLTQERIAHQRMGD
Sequence (Q15369 whole entry partner): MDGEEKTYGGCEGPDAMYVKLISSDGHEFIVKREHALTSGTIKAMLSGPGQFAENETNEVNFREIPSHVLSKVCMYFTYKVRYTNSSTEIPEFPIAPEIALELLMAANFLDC
Sequence (Q15370 whole entry partner): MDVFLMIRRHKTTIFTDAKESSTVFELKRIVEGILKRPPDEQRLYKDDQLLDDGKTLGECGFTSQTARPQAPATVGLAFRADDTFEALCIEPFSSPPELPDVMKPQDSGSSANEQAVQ
Assay: Androgen Receptor ELISA assay (PathScan AR ELISA) in LNCaP cells: AR degradation, Dmax and DC50
Assay type: cell-based
Conditions: concentration that caused 50% Androgen Receptor degradation
Reported Metric: DC50

Example entries and their recorded answers appear below.
Cc1ncsc1-c1ccc(CNC(=O)[C@@H]2C[C@@H](O)CN2C(=O)[C@@H](NC(=O)c2ccc(OCCOCCCOc3ccc(N4C(=S)N(c5ccc(C#N)c(C(F)(F)F)c5)C(=O)C4(C)C)cc3)cc2)C(C)(C)C)cc1 :: 51 to 500 nM
Cc1ncsc1-c1ccc(CNC(=O)[C@@H]2C[C@@H](O)CN2C(=O)[C@H](C(C)C)N2Cc3c(CCCOCCOc4ccc(N5C(=S)N(c6ccc(C#N)c(C(F)(F)F)c6)C(=O)C5(C)C)cc4)cccc3C2=O)cc1 :: 51 to 500 nM
Cc1ncsc1-c1ccc(CNC(=O)C2C[C@@H](OC(C)(C)C)CN2C(=O)[C@H](C(C)C)N2Cc3ccccc3C2=O)c(OCCOCCOCCOc2ccc(N3C(=O)N(c4ccc(C#N)c(C(F)(F)F)c4)C(=O)C3(C)C)cc2)c1 (some centres unmarked) :: 51 to 500 nM
Cc1ncsc1-c1ccc(CNC(=O)[C@@H]2C[C@@H](O)CN2C(=O)[C@H](C(C)C)N2Cc3ccccc3C2=O)c(OCCOCCOCCOCCOCCOc2ccc(N3C(=S)N(c4ccc(C#N)c(C(F)(F)F)c4)C(=O)C3(C)C)cc2)c1 :: 51 to 500 nM
Cc1ncsc1-c1ccc(CNC(=O)[C@@H]2C[C@@H](O)CN2C(=O)[C@@H](NC(=O)COCCCCOCCCCOc2ccc(N3C(=S)N(c4ccc(C#N)c(C(F)(F)F)c4)C(=O)C3(C)C)cc2)C(C)(C)C)cc1 :: < 50 nM
Cc1ncsc1-c1ccc(CNC(=O)[C@@H]2C[C@@H](O)CN2C(=O)[C@@H](NC(=O)c2ccc(OCCCCCOc3ccc(N4C(=S)N(c5ccc(C#N)c(C(F)(F)F)c5)C(=O)C4(C)C)cc3)cc2)C(C)(C)C)cc1 :: 51 to 500 nM
Cc1ncsc1-c1ccc(CNC(=O)[C@@H]2C[C@@H](O)CN2C(=O)[C@H](C(C)C)N2Cc3ccccc3C2=O)c(OCCOCCOCCOc2ccc(N3C(=S)N(c4ccc(C#N)c(C(F)(F)F)c4)C(=O)C3(C)C)cc2)c1 :: 51 to 500 nM
Cc1ncsc1-c1ccc(CNC(=O)[C@@H]2C[C@@H](O)CN2C(=O)[C@@H](NC(=O)COCCCCOCCCCCOc2ccc(N3C(=S)N(c4ccc(C#N)c(C(F)(F)F)c4)C(=O)C3(C)C)cc2)C(C)(C)C)cc1 :: 51 to 500 nM

Given item Cc1ncsc1-c1ccc(CNC(=O)[C@@H]2C[C@@H](O)CN2C(=O)[C@@H](NC(=O)COCCCOCCOc2cccc(-c3ccc(N4C(=S)N(c5ccc(C#N)c(C(F)(F)F)c5)C(=O)C4(C)C)cc3)c2)C(C)(C)C)cc1 , the value recorded as its DC50 is < 50 nM

Cc1ncsc1-c1ccc(CNC(=O)[C@@H]2C[C@@H](O)CN2C(=O)[C@@H](NC(=O)CCc2ccc(OCCCOc3ccc(N4C(=S)N(c5ccc(C#N)c(C(F)(F)F)c5)C(=O)C4(C)C)cc3)cc2)C(C)(C)C)cc1 has a reported DC50 of 51 to 500 nM

Entry CC(=O)N[C@@H](C)C(=O)N1C[C@H](O)C[C@H]1C(=O)NCc1ccc(-c2scnc2C)cc1OCCOCCOCCOc1ccc(N2C(=S)N(c3ccc(C#N)c(C(F)(F)F)c3)C(=O)C2(C)C)cc1 , DC50 reported as > 501 nM

The compound Cc1ncsc1-c1ccc(CNC(=O)[C@@H]2C[C@@H](O)CN2C(=O)[C@@H](NC(=O)COCCOCCCOc2ccc(N3C(=S)N(c4ccc(C#N)c(C(F)(F)F)c4)C(=O)C3(C)C)cc2)C(C)(C)C)cc1 showed DC50 equal to 51 to 500 nM

DC50 in this record for COc1cc(N2C(=O)C(C)(C)N(c3ccc(OCCCCOCCCOCC(=O)N[C@H](C(=O)N4C[C@H](O)C[C@H]4C(=O)NCc4ccc(-c5scnc5C)cc4)C(C)(C)C)cc3)C2=S)ccc1C#N : < 50 nM

For this compound ( Cc1ncsc1-c1ccc(CNC(=O)[C@@H]2C[C@@H](O)CN2C(=O)[C@@H](NC(=O)CO[C@H](C)[C@@H](C)OCCOCCOc2ccc(N3C(=S)N(c4ccc(C#N)c(C(F)(F)F)c4)C(=O)C3(C)C)cc2)C(C)(C)C)cc1 ), measured DC50 is < 50 nM

* * *

Test: PROTAC prodrug oral pharmacokinetics in CD-1 mice
Format: in vivo
Conditions: male, mouse, plasma, 10 mg/kg, 10 mpk PO, vehicle ESP-4, prodrug measured, read-out: Plasma Exposure Prodrug Cmax
Protocol: 9. PROTAC Prodrug Oral Pharmacokinetics and PROTAC Subcutaneous Phamacokinetics. Representative Pharmacokinetic Procedure […] The plasma samples were analysed via an LC/MS/MS method quantitating for unchanged, administered test article, and/or a derivative species as appropriate. […]
Reported Metric: Cmax (ng/mL)
Supply the numeric figure in ng/mL, leaving out any unit text.

// worked examples, Cmax included
Cc1ncsc1-c1ccc([C@H](CN(C)C)NC(=O)[C@@H]2C[C@@H](O)CN2C(=O)[C@@H](NC(=O)COCCCCCOc2ccc(C(=O)N[C@H]3C(C)(C)[C@H](Oc4ccc(C#N)c(Cl)c4)C3(C)C)cc2)C(C)(C)C)cc1 :: 346
Cc1ncsc1-c1ccc([C@H](C)NC(=O)[C@@H]2C[C@@H](O)CN2C(=O)[C@@H](NC(=O)COCCCCCNc2ccc(C(=O)N[C@H]3C(C)(C)[C@H](Oc4ccc(C#N)c(C(F)(F)F)n4)C3(C)C)cc2)C(C)(C)C)cc1 :: 48

Summary for this compound, Cc1ncsc1-c1ccc([C@H](C)NC(=O)[C@@H]2C[C@@H](OC(=O)[C@@H](N)C(C)C)CN2C(=O)[C@@H](NC(=O)COCCCCCNc2ccc(C(=O)N[C@H]3C(C)(C)[C@H](Oc4ccc(C#N)c(Cl)c4)C3(C)C)cc2)C(C)(C)C)cc1 : Cmax is 12

* * *

Molecular target: Androgen Receptor (Homo sapiens, UniProt P10275)
Construct: endogenous in cells; host or cells: VCaP cells
Sequence (P10275 whole entry): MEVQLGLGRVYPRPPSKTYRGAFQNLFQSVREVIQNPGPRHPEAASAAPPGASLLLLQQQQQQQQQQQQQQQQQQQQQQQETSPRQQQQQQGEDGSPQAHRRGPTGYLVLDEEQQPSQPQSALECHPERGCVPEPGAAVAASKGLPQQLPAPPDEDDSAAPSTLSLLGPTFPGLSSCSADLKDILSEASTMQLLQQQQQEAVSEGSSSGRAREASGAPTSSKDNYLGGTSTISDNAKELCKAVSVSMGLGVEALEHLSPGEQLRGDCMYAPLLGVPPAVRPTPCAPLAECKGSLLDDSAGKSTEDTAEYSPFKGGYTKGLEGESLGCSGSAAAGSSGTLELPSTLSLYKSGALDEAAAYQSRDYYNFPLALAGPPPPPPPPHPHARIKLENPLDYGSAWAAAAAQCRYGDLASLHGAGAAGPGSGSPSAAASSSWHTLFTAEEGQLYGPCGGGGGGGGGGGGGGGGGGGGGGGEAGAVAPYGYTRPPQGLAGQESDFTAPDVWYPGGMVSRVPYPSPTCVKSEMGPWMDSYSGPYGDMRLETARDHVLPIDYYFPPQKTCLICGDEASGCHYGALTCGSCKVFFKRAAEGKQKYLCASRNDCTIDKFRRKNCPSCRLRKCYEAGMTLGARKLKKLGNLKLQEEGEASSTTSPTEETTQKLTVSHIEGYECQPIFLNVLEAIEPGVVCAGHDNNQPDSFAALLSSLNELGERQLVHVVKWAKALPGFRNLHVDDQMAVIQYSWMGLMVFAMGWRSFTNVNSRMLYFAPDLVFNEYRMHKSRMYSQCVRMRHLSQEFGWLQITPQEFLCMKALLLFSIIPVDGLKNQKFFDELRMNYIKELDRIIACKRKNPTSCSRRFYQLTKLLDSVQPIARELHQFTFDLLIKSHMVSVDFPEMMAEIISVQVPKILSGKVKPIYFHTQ
Assay: Androgen Receptor ELISA assay (PathScan AR ELISA) in VCaP cells: AR degradation, Dmax and DC50
Type: cell-based
Details: VCaP, read-out: VCaP Dmax (%)
// values below are reported Dmax

CC(C)(C)[C@H](NC(=O)COCCCOCCCCOc1ccc(N2C(=S)N(c3ccc(C#N)c(Cl)c3)C(=O)C2(C)C)cc1F)C(=O)N1C[C@H](O)C[C@H]1C(=O)NCc1ccc(-c2cncs2)cc1 :: > 71%

Turning now to a further molecule:
// Dmax value for Cc1ncsc1-c1ccc([C@H](NC(=O)[C@@H]2C[C@@H](O)CN2C(=O)[C@@H](NC(=O)CN2CCN(CCCc3ccc(C(=O)N[C@H]4C(C)(C)[C@H](Oc5ccc(C#N)c(C(F)(F)F)c5)C4(C)C)cc3)CC2)C(C)(C)C)C2COC2)cc1 : < 25%

* * *

Here, each record is paired with measured Dmax data.
Molecular target: Androgen Receptor (Homo sapiens, UniProt P10275+P40337, T878A)
Construct: Compounds have been evaluated in this assay in LNCaP and/or VCaP cells utilizing similar protocols; endogenous in cells; host or cells: LNCaP cells
Experiment: Androgen Receptor ELISA assay (PathScan AR ELISA) in LNCaP cells: AR degradation, Dmax and DC50
Assay type: cell-based
Settings: highest percentage of Androgen Receptor degradation

Cc1ncsc1-c1ccc(CNC(=O)[C@@H]2C[C@@H](O)CN2C(=O)[C@@H](NC(=O)COCCOCCOCCCCOCCOCCOc2ccc(N3C(=S)N(c4ccc(C#N)c(C(F)(F)F)c4)C(=O)C3(C)C)cc2)C(C)(C)C)cc1 :: 51 to 70%

Kindly note the recorded Dmax for Cc1ncsc1-c1ccc(CNC(=O)[C@@H]2C[C@@H](O)CN2C(=O)[C@@H](NC(=O)OCCOCCCOCCOc2ccc(N3C(=S)N(c4ccc(C#N)c(C(F)(F)F)c4)C(=O)C3(C)C)cc2)C(C)(C)C)cc1 , which is 51 to 70%

Value of Dmax reported for the molecule Cc1ncsc1-c1ccc(CNC(=O)[C@@H]2C[C@@H](O)CC2C(=O)[C@H](C(C)C)N2Cc3ccccc3C2=O)c(OCCOC2CCCC[C@@H]2OCCOc2ccc(N3C(=S)N(c4ccc(C#N)c(C(F)(F)F)c4)C(=O)C3(C)C)cc2)c1 (stereo partly drawn) is 26 to 50%

Sure, the documented Dmax for CC(=O)NCC(=O)N1C[C@H](O)C[C@H]1C(=O)NCc1ccc(-c2scnc2C)cc1OCCOCCOCCOc1ccc(N2C(=S)N(c3ccc(C#N)c(C(F)(F)F)c3)C(=O)C2(C)C)cc1 is 26 to 50%

Query Cc1ncsc1-c1ccc(CNC(=O)[C@@H]2C[C@@H](O)CN2C(=O)[C@@H](NC(=O)COCCCCOC2CCN(C(=O)c3ccc(N4C(=S)N(c5ccc(C#N)c(C(F)(F)F)c5)C(=O)C4(C)C)cc3)CC2)C(C)(C)C)cc1 yields Dmax of 51 to 70%

The molecule listed as Cc1ncsc1-c1ccc(CNC(=O)[C@@H]2C[C@H](O)CN2C(=O)[C@@H](NC(=O)COCCCOCCCCCOc2ccc(N3C(=S)N(c4ccc(C#N)c(C(F)(F)F)c4)C(=O)C3(C)C)cc2)C(C)(C)C)cc1 has a reported Dmax of 26 to 50%
